tested on: PC-12; assay: Radical scavenging activity in rat PC12 cells assessed as inhibition of hydrogen peroxide radical-induced cell damage by MTT assay; format: functional, cell-based
Where a SMILES comes first, the peptide text is derived from it. The star is where a group is joined. X1 = CC1(C)N(O)C(c2ccc(OCCN*)cc2)=[N+]([O-])C1(C)C
property name: EC50 (µM)
Only the number, expressed in µM, is required.

Solved entries:
compound | property name | unit label | result value
C[C@H](NC(=O)[C@@H]1CCCN1)C(=O)N[C@@H](CCCCNC(=O)COc1ccc(C2=[N+]([O-])C(C)(C)C(C)(C)N2O)cc1)C(=O)O | EC50 | µM | 28.8
CC1(C)N(O)C(c2ccc(OCCNC(=O)C[C@H](NC(=O)CNC(=O)[C@@H](N)CCCNC(=N)N)C(=O)N[C@@H](CO)C(=O)O)cc2)=[N+]([O-])C1(C)C (H-RGD(X1)S-OH) | EC50 | µM | 32
CC1(C)N(O)C(c2ccc(OCCNC(=O)CC[C@H](N)C(=O)O)cc2)=[N+]([O-])C1(C)C | EC50 | µM | 49.6

Please look at the following compound next.
Q: Recorded EC50 of `COC(=O)[C@@H](N)CC(=O)NCCOc1ccc(C2=[N+]([O-])C(C)(C)C(C)(C)N2O)cc1` , please.
Ans: 47.8
